target: Nuclear receptor subfamily 1 group I member 3 (Homo sapiens) (UniProt Q14994); assay: qHTS assay to identify small molecule agonists of the constitutive androstane receptor (CAR) signaling pathway (AID 1224839); conditions: HepG2 hCAR CYP2B6-luciferase, agonist mode, 24 h; series mostly up to 92.4 µM;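 note: HepG2 cells stably carrying human CAR and a CYP2B6 luciferase reporter; nearly all actives have a fitted effect of over 15% in size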
Sequence (Q14994 whole entry, looked up): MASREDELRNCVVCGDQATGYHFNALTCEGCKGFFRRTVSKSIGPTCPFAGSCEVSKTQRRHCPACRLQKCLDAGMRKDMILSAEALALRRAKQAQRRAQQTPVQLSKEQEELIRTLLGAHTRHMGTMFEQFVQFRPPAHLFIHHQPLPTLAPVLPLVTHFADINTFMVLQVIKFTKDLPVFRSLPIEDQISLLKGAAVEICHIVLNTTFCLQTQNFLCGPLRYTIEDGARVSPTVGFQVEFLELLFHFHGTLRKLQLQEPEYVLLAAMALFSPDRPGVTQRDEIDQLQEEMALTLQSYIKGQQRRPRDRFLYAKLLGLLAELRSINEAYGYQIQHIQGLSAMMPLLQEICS
Results filed as inconclusive are left out. Activity calls are given as the source filed them. Calls come from the whole dose curve; as a rule, active = well fitted activation curve with a large enough effect in the repeat runs; inconclusive = weak or mixed curves; inactive = no such curve, though single readings can be large or run the other way.
Can you answer with just one of these options? active, inactive

structure | assigned_label
CCCCCCCCCCCCOC(=O)c1ccc(O)cc1 | inactive
Cc1cc(-c2ccc(N=Nc3cc(S(=O)(=O)O)c4ccccc4c3N)c(C)c2)ccc1N=Nc1cc(S(=O)(=O)O)c2ccccc2c1N | inactive
c1cnccn1 | inactive
C=CC(=O)OCCOC(=O)C=C | inactive

stdin: What is the recorded call for this compound in the test? CCCCCCCC/C=C\CCCCCCCCN
stdout: inactive

stdin: What is the recorded call for this compound in the test? CCC(=O)C(=O)CC
stdout: inactive

stdin: What is the recorded call for this compound in the test? OCC(F)(F)F
stdout: inactive

stdin: What is the recorded call for this compound in the test? CCCCCCCC
stdout: inactive

stdin: What is the recorded call for this compound in the test? COc1cc(S(=O)(=O)O)c(C)cc1N=Nc1c(O)ccc2cc(S(=O)(=O)O)ccc12
stdout: inactive
